Entry source: ChEMBL document CHEMBL1201862

# Test system: SF-268
# method_notes: NCI tumour cell line growth inhibition, 48 h
Calls of active or inactive are those of the source. Cut-off read from the data, not from the text of the source: active = GI50 up to about 1.1 µM and inactive = higher.
# GI50 per record follows

Some compounds with recorded GI50:
compound	readout_value
ICC1CCCO1 (configuration not stated)	> 100 µM (inactive)
CC1=C(C(=O)Nc2ccccc2C)C(c2ccc(Cl)cc2)C(C(=O)Nc2ccccc2C)=C(C)N1	> 100 µM (inactive)
CCC(C)c1cccc(C)c1NC(=O)C(=O)Cc1nc2ccccc2s1 (configuration not stated)	> 100 µM (inactive)

Value of measured GI50 for the entry `N#CS/C(Cl)=C(/C(Cl)=C(Cl)Cl)[N+](=O)[O-]` : 38 µM (inactive)

Value of measured GI50 for the entry `CC[P+]1(c2ccccc2)CCCCC1` : > 100 µM (inactive)

Value of measured GI50 for the entry `N#Cc1c(NC(=S)Nc2ccc(Cl)cc2)sc2c1CCCC2` : > 100 µM (inactive)

Value of measured GI50 for the entry `Oc1ccc2ccccc2c1/C=C/c1ccc2c(Br)cc(Br)c(O)c2n1` : 5.87 µM (inactive)

Value of measured GI50 for the entry `Cc1cccc2c(N)c3cccc(C(=O)NCC[N+](C)(C)Cc4sc(N5CCOCC5)nc4[N+](=O)[O-])c3nc12` : 23 µM (inactive)

Value of measured GI50 for the entry O=C(O)C1OC1C(=O)O (configuration not stated) : > 100 µM (inactive)

Value of measured GI50 for the entry `CCCNC1=NC(C)=CSC(Nc2ccccc2)=C1C#N` : > 100 µM (inactive)

Value of measured GI50 for the entry `CCOC(=O)C1=C(Nc2cccc3ccccc23)OC/C1=N\NC(=O)c1ccccc1O` : 13.4 µM (inactive)

Value of measured GI50 for the entry `COCCCCCC(=O)CP(=O)(OC)OC` : > 100 µM (inactive)
